Catalogue of compounds with associated T/C
# System: Nude mice, LX-1 lung xenograft intrarenal, tumor weight T/C
# Assay Method Text: NCI In Vivo Anticancer Drug Screen. Data for tumor model Human Lung LX-1 Xenograft (intrarenal inoculation) in NU/NU BALB/C (nude) mice
# Experimental Parameters: endpoint: mean tumor weight change; dose: 400.0 mg/kg/injection; schedule: Q01DX010 (sc); vehicle: saline with Tween-80; higher = larger tumour
Inconclusive results are not listed.
Property Name: T/C

>  <Compound>
COc1cc(C[C@H]2c3cc(OC)c(OC)cc3CCN2C)c(Oc2cc3c(cc2OC)-c2c(OC)c(OC)cc4c2[C@H](C3)N(C)CC4)cc1OC

>  <Property Name>
T/C

>  <Observed Value>
90 % of control

$$$$
>  <Compound>
CCCC(=O)Oc1ccc(/C=N/NC(N)=S)nc1

>  <Property Name>
T/C

>  <Observed Value>
19 % of control

$$$$
>  <Compound>
Cc1ccc(S(=O)(=O)NC(=S)S)cc1

>  <Property Name>
T/C

>  <Observed Value>
196 % of control

$$$$
>  <Compound>
CC1(CO)C(O)CCC2(C)C1CCC1CC3CC12CCC3(O)CO (configuration not stated)

>  <Property Name>
T/C

>  <Observed Value>
34 % of control

$$$$
>  <Compound>
COC1=C(OC)C(=O)C(C/C=C(\C)CC/C=C(\C)CC/C=C(\C)CC/C=C(\C)CC/C=C(\C)CC/C=C(\C)CC/C=C(\C)CC/C=C(\C)CC/C=C(\C)CCC=C(C)C)=C(C)C1=O

>  <Property Name>
T/C

>  <Observed Value>
104 % of control

$$$$
>  <Compound>
COc1ccc(OC)c(/C=C/c2ccnc3ccccc23)c1

>  <Property Name>
T/C

>  <Observed Value>
121 % of control

$$$$
>  <Compound>
CCOC(C)C(/C=N/NC(N)=S)=NNC(N)=S (configuration not stated)

>  <Property Name>
T/C

>  <Observed Value>
233 % of control

$$$$
